Test system: Pseudomonas aeruginosa
test name: In Vitro antibacterial activity against (Pa) hyperpermeable Pseudomonas aeruginosa […] strain
Format: functional
Note to self: MIC under 1 µg/mL means t, ties and anything higher get f.

Example cases with answers are listed next.
C[C@H](C(N)=O)N(C)CC1=C(C(=O)O)N2C(=O)[C@H]([C@@H](C)O)[C@H]2S1 | f
C[C@@H](O)[C@H]1C(=O)N2C(C(=O)O)=C(CN(C)C(CO)C(N)=O)S[C@H]12 (stereo partly drawn) | f
C[C@@H](O)[C@H]1C(=O)N2C(C(=O)O)=C(CN(C)CC(N)=O)S[C@H]12 | t
C[C@@H](O)[C@H]1C(=O)N2C(C(=O)O)=C(CSC(=S)N(C)CC(N)=O)S[C@H]12 | f
CCN(CC(N)=O)CC1=C(C(=O)O)N2C(=O)[C@H]([C@@H](C)O)[C@H]2S1 | f

Pending compound:
### Prompt Given the entry C[C@@H](O)[C@H]1C(=O)N2C(C(=O)O)=C(CN3C[C@@H](O)C[C@@H]3C(N)=O)S[C@H]12 , would its reported MIC be below 1 µg/mL?
### Response t
